Reported inhibition values for the following compounds.
- study-system: Serum amyloid P-component (Homo sapiens) (UniProt P02743)
- Sequence (P02743 whole entry): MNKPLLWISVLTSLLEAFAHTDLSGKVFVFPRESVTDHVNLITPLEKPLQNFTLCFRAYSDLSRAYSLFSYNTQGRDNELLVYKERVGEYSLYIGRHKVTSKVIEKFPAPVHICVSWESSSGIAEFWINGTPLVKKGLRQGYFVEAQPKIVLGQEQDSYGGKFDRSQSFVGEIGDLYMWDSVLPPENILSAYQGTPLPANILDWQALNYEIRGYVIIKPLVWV
- protocol-summary: Inhibition of calcium dependent [125I]serum amyloid P-component (unknown origin) binding to immobilized influenza virus A/Shanghai/24/90 at 2 mM incubated for 2 hrs by fluorescence/electron microscopy relative to control

[[record]]
smiles_record = "NCCOP(=O)(O)O"
experimental_endpoint = "inhibition"
observed_measurement = "69%"

[[record]]
smiles_record = "O=C(O)[C@H]1CCCN1C(=O)Cc1cccc(CC(=O)N2CCC[C@@H]2C(=O)O)c1"
experimental_endpoint = "inhibition"
observed_measurement = "82%"

[[record]]
smiles_record = "O=C(O)[C@H]1CCCN1C(=O)Cc1cc(O)c(CC(=O)N2CCC[C@@H]2C(=O)O)cc1O"
experimental_endpoint = "inhibition"
observed_measurement = "89%"

[[record]]
smiles_record = "C[N+](C)(C)CCOP(=O)([O-])O"
experimental_endpoint = "inhibition"
observed_measurement = "3%"

[[record]]
smiles_record = "O=C(O)[C@H]1CCCN1C(=O)COc1ccccc1OCC(=O)N1CCC[C@@H]1C(=O)O"
experimental_endpoint = "inhibition"
observed_measurement = "94%"


Entry `Cc1c(OCC(=O)N2CCC[C@@H]2C(=O)O)cccc1OCC(=O)N1CCC[C@@H]1C(=O)O` : inhibition on Serum amyloid P-component (Homo sapiens) (UniProt P02743) = 85%

For the compound `O=C(O)[C@H]1CCCN1C(=O)COc1ccc(OCC(=O)N2CCC[C@@H]2C(=O)O)cc1` , the measured inhibition on Serum amyloid P-component (Homo sapiens) (UniProt P02743) was 87%

Considering `COc1cccc(OCC(=O)N2CCC[C@@H]2C(=O)O)c1OCC(=O)N1CCC[C@@H]1C(=O)O` , its inhibition with Serum amyloid P-component (Homo sapiens) (UniProt P02743) was recorded as 89%

Each recorded value in this set is attributed to ChEMBL document CHEMBL3882241.
